I'd be grateful if you could share measured inhibition at 100 µM for these entries.
Organism: Rattus norvegicus
experimental protocol: Inhibitory activity against D-GalN-induced cytotoxicity in rat hepatocytes at 100 uM
Type: functional
condition set: Hepatocyte
Entry rule: numbers only, all in %.

**Query** Looking for the measured inhibition at 100 µM of C=C[C@@H](O)C#CC#CC/C=C\CCCCCCC , can you help?
**Result** -0.6

**Query** Now try O=c1ccc2ccc(O[C@@H]3O[C@H](COC4OC[C@](O)(CO)[C@H]4O)[C@@H](O)[C@H](O)[C@H]3O)cc2o1 (some centres undefined) .
**Result** -2.1

**Query** # iterate: CC(=O)O[C@@H]1[C@H](OC(=O)CC(C)C)c2c(ccc3ccc(=O)oc23)OC1(C)C
**Result** -3.4

**Query** Also check COc1c2ccoc2cc2oc(=O)ccc12
**Result** 23

**Query** Follow-up item: C/C=C(\C)C(=O)O[C@@H]1[C@H](OC(=O)C(C)C)c2c(ccc3ccc(=O)oc23)OC1(C)C
**Result** 10

**Query** Repeat for the following molecule: C/C=C(\C)C(=O)O[C@@H]1c2c(ccc3ccc(=O)oc23)OC(C)(C)[C@@H]1OC(=O)/C(C)=C/C
**Result** 2.8

**Query** COc1cc(C(O)C(CO)Oc2ccc(/C=C/CO[C@@H]3O[C@H](CO)[C@@H](O)[C@H](O)[C@H]3O)cc2OC)ccc1O (some centres undefined) ?
**Result** -0.2

**Query** Now the molecule C=C[C@@H](O)C#CC#C[C@@H](O)/C=C\CCCCCCC
**Result** -33

**Query** Next molecule: CC(C)(O)[C@H](O)Cc1cc2ccc(=O)oc2cc1O[C@@H]1O[C@H](CO)[C@@H](O)[C@H](O)[C@H]1O
**Result** 5.8

* * *

Hi there, I'd appreciate the recorded inhibition at 100 µM for every entry that follows.
Species on record: Rattus norvegicus
experimental protocol: Inhibitory activity against D-GalN-induced cytotoxicity in rat hepatocytes at 100 uM
Assay type: functional
condition set: Hepatocyte
Field format: number, assumed %, no unit text.

**Query** # query: inhibition at 100 µM of entry CC(C)(O)C1Cc2cc(CCC(=O)O)c(O[C@@H]3O[C@H](CO)[C@@H](O)[C@H](O)[C@H]3O)cc2O1 (some centres undefined)
**Result** 0.6

**Query** Follow-up item: CC1(C)Oc2ccc3ccc(=O)oc3c2[C@H](O)[C@H]1O
**Result** 1.5

**Query** Likewise for CC1(C)Oc2ccc3ccc(=O)oc3c2[C@@H](O)[C@H]1O ?
**Result** 6.5

**Query** C/C=C(\C)C(=O)O[C@@H]1[C@H](OC(C)=O)c2c(ccc3ccc(=O)oc23)OC1(C)C , same question.
**Result** 13

**Query** Now give it for CCC(C)C(=O)O[C@@H]1c2c(ccc3ccc(=O)oc23)OC(C)(C)[C@@H]1OC(C)=O (some centres undefined) too.
**Result** -2.5

**Query** Note, next up: CC1(C)Oc2ccc3ccc(=O)oc3c2C[C@H]1O[C@@H]1O[C@H](CO)[C@@H](O)[C@H](O)[C@H]1O
**Result** 1.4

**Query** Subsequent entry: C/C=C(\C)C(=O)O[C@@H]1c2c(ccc3ccc(=O)oc23)OC(C)(C)[C@@H]1OC(C)=O [PTERYXIN]
**Result** 4.4

**Query** Same thing, different compound: C/C=C(\C)C(=O)O[C@@H]1[C@H](OC(=O)C(C)CC)c2c(ccc3ccc(=O)oc23)OC1(C)C (some centres undefined)
**Result** -0.5

**Query** CC(=O)O[C@@H]1[C@H](OC(=O)C(C)C)c2c(ccc3ccc(=O)oc23)OC1(C)C [SERAVSHANIN] , same question.
**Result** -2.2
